Target: Cytochrome P450 2D6 (Homo sapiens)
Sequence (P10635 whole entry): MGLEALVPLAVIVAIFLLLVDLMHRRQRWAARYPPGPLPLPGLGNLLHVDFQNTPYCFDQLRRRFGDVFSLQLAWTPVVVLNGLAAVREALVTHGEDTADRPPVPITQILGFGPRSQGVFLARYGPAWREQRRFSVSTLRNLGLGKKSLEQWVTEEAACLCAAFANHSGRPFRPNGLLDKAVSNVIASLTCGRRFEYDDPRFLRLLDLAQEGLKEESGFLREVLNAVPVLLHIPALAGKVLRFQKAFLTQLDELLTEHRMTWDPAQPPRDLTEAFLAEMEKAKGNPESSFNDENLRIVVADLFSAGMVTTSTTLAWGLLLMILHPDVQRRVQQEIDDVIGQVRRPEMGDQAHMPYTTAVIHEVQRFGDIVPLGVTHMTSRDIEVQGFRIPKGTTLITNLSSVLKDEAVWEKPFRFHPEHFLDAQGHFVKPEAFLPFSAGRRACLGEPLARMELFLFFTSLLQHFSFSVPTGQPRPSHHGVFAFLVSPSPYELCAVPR
Assay: Inhibition of recombinant human CYP2D6 using AMMC as substrate preincubated for 30 mins followed by substrate addition measured after 45 mins by fluorescence based assay

[
  {
    "substance_smiles": "c1cnc2c(c1)CN[C@@H](CN(CCCCN(C1COC1)C1COC1)[C@H]1CCCc3cccnc31)C2",
    "rel": ">",
    "IC50 (µM)": 20
  },
  {
    "substance_smiles": "c1cnc2c(c1)CN[C@@H](CN(CCCCNC1CCOCC1)[C@H]1CCCc3cccnc31)C2",
    "rel": ">",
    "IC50 (µM)": 20
  },
  {
    "substance_smiles": "NC(=O)NC/C=C/CN(C[C@H]1Cc2ncccc2CN1)[C@H]1CCCc2cccnc21",
    "rel": "=",
    "IC50 (µM)": 18
  },
  {
    "substance_smiles": "NCCCCN(C[C@@H]1Cc2nccnc2CN1)[C@H]1CCCc2cccnc21",
    "rel": ">",
    "IC50 (µM)": 20
  },
  {
    "substance_smiles": "NC/C=C\\CN(C[C@H]1Cc2ncccc2CN1)[C@H]1CCCc2cccnc21",
    "rel": "=",
    "IC50 (µM)": 13
  },
  {
    "substance_smiles": "c1cnc2c(c1)CN[C@@H](CN(CCCC1CCNCC1)[C@H]1CCCc3cccnc31)C2",
    "rel": ">",
    "IC50 (µM)": 20
  },
  {
    "substance_smiles": "NC(=O)NCCCCN(C[C@H]1Cc2ncccc2CN1)[C@H]1CCCc2cccnc21",
    "rel": "=",
    "IC50 (µM)": 13
  },
  {
    "substance_smiles": "CN(C)CCCCN(C[C@H]1Cc2ncccc2CN1)[C@H]1CCCc2cccnc21",
    "rel": "=",
    "IC50 (µM)": 10
  },
  {
    "substance_smiles": "NCCCCN(C[C@H]1Cc2nccnc2CN1)[C@H]1CCCc2cccnc21",
    "rel": ">",
    "IC50 (µM)": 20
  },
  {
    "substance_smiles": "CN(C[C@@H]1Cc2ncccc2CN1)[C@H]1CCCc2cccnc21",
    "rel": "=",
    "IC50 (µM)": 2.7
  },
  {
    "substance_smiles": "FC1(F)CCC(NCCCCN(C[C@H]2Cc3ncccc3CN2)[C@H]2CCCc3cccnc32)CC1",
    "rel": "=",
    "IC50 (µM)": 15
  },
  {
    "substance_smiles": "c1cnc2c(c1)CN[C@@H](CN(CCCCN1CCOCC1)[C@H]1CCCc3cccnc31)C2",
    "rel": ">",
    "IC50 (µM)": 20
  },
  {
    "substance_smiles": "NC(=O)NC/C=C\\CN(C[C@H]1Cc2ncccc2CN1)[C@H]1CCCc2cccnc21",
    "rel": "=",
    "IC50 (µM)": 20
  },
  {
    "substance_smiles": "NCCCCN(C[C@H]1Cc2ncccc2CN1)[C@H]1CCCc2cccnc21",
    "rel": "=",
    "IC50 (µM)": 12
  },
  {
    "substance_smiles": "CCN(CC)CCCCN(C[C@H]1Cc2ncccc2CN1)[C@H]1CCCc2cccnc21",
    "rel": "=",
    "IC50 (µM)": 10
  },
  {
    "substance_smiles": "CN(CCCCN(C[C@H]1Cc2ncccc2CN1)[C@H]1CCCc2cccnc21)C1CCC(F)(F)CC1",
    "rel": "=",
    "IC50 (µM)": 13
  },
  {
    "substance_smiles": "c1cnc2c(c1)CN[C@@H](CN(CCCCNC1COC1)[C@H]1CCCc3cccnc31)C2",
    "rel": ">",
    "IC50 (µM)": 20
  },
  {
    "substance_smiles": "NCCCCN(C[C@@H]1Cc2ncccc2CN1)[C@H]1CCCc2cccnc21",
    "rel": "=",
    "IC50 (µM)": 9.7
  },
  {
    "substance_smiles": "NCCCCN(C[C@H]1Cc2cccnc2CN1)[C@H]1CCCc2cccnc21",
    "rel": "=",
    "IC50 (µM)": 4
  },
  {
    "substance_smiles": "CN(C[C@H]1Cc2ncccc2CN1)[C@H]1CCCc2cccnc21",
    "rel": "=",
    "IC50 (µM)": 2.8
  }
]

* * *

Assay: Drug concentration in mouse plasma at 30 mg/kg, po measured at 12 hrs by LC-MS analysis
Format: ADME, organism-based

[
  {
    "substance_smiles": "NCCCCN(Cc1nc2ccccc2[nH]1)[C@H]1CCCc2cccnc21",
    "concentration at 12 h": "2.2 ng/mL"
  },
  {
    "substance_smiles": "CN(CCCCN(C[C@H]1Cc2ncccc2CN1)[C@H]1CCCc2cccnc21)C1CCC(F)(F)CC1",
    "concentration at 12 h": "34.8 ng/mL"
  }
]

* * *

Assay: Antagonist activity at human CXCR4 receptor expressed in CCRF-CEM cells assessed as inhibition of CXCL12-induced calcium release by calcium flux assay
Type: cell-based
pIC50: −log10 of the molar value.
Label scheme for pIC50: lower than 7 is criterion not met, 7 and above is criterion met.

[
  {
    "substance_smiles": "CN(C)CCCCN(C[C@H]1Cc2ncccc2CN1)[C@H]1CCCc2cccnc21",
    "classification": "criterion not met"
  },
  {
    "substance_smiles": "NCCCCN(C[C@@H]1Cc2cccnc2CN1)[C@H]1CCCc2cccnc21",
    "classification": "criterion not met"
  },
  {
    "substance_smiles": "c1cnc2c(c1)CN[C@@H](CN(CCCCN1CCOCC1)[C@H]1CCCc3cccnc31)C2",
    "classification": "criterion not met"
  },
  {
    "substance_smiles": "CN(C[C@@H]1Cc2ncccc2CN1)[C@H]1CCCc2cccnc21",
    "classification": "criterion not met"
  },
  {
    "substance_smiles": "NCCCCN(C[C@@H]1Cc2ncccc2CN1)[C@H]1CCCc2cccnc21",
    "classification": "criterion not met"
  },
  {
    "substance_smiles": "NCCCCN(C[C@H]1Cc2ncccc2CN1)[C@H]1CCCc2cccnc21",
    "classification": "criterion met"
  },
  {
    "substance_smiles": "NC(=O)NC/C=C/CN(C[C@H]1Cc2ncccc2CN1)[C@H]1CCCc2cccnc21",
    "classification": "criterion not met"
  },
  {
    "substance_smiles": "NC/C=C\\CN(C[C@H]1Cc2ncccc2CN1)[C@H]1CCCc2cccnc21",
    "classification": "criterion met"
  },
  {
    "substance_smiles": "FC1(F)CCC(NCCCCN(C[C@H]2Cc3ncccc3CN2)[C@H]2CCCc3cccnc32)CC1",
    "classification": "criterion met"
  },
  {
    "substance_smiles": "c1cnc2c(c1)CN[C@@H](CN(CCCC1CCNCC1)[C@H]1CCCc3cccnc31)C2",
    "classification": "criterion met"
  },
  {
    "substance_smiles": "c1cnc2c(c1)CN[C@@H](CN(CCCCN(C1COC1)C1COC1)[C@H]1CCCc3cccnc31)C2",
    "classification": "criterion not met"
  },
  {
    "substance_smiles": "CN(CCCCN(C[C@H]1Cc2ncccc2CN1)[C@H]1CCCc2cccnc21)C1CCC(F)(F)CC1",
    "classification": "criterion met"
  },
  {
    "substance_smiles": "CCN(CC)CCCCN(C[C@H]1Cc2ncccc2CN1)[C@H]1CCCc2cccnc21",
    "classification": "criterion not met"
  },
  {
    "substance_smiles": "NCCCCN(C[C@H]1Cc2cccnc2CN1)[C@H]1CCCc2cccnc21",
    "classification": "criterion met"
  },
  {
    "substance_smiles": "NCCCCN(C[C@H]1Cc2nccnc2CN1)[C@H]1CCCc2cccnc21",
    "classification": "criterion met"
  },
  {
    "substance_smiles": "CN(C[C@H]1Cc2ncccc2CN1)[C@H]1CCCc2cccnc21",
    "classification": "criterion not met"
  },
  {
    "substance_smiles": "NC(=O)NCCCCN(C[C@H]1Cc2ncccc2CN1)[C@H]1CCCc2cccnc21",
    "classification": "criterion not met"
  },
  {
    "substance_smiles": "c1cnc2c(c1)CN[C@@H](CN(CCCCNC1CCOCC1)[C@H]1CCCc3cccnc31)C2",
    "classification": "criterion met"
  },
  {
    "substance_smiles": "NC(=O)NC/C=C\\CN(C[C@H]1Cc2ncccc2CN1)[C@H]1CCCc2cccnc21",
    "classification": "criterion not met"
  }
]

* * *

Papp at 4 h values for the compounds below.
Assay: Permeability of compound at pH 5.5 incubated for 4 hrs by PAMPA assay
Type: ADME
Conditions: read-out: permeability

[
  {
    "substance_smiles": "NC(=O)NC/C=C/CN(C[C@H]1Cc2ncccc2CN1)[C@H]1CCCc2cccnc21",
    "units_text": "nm/s",
    "Papp at 4 h": 6
  },
  {
    "substance_smiles": "CN(CCCCN(C[C@H]1Cc2ncccc2CN1)[C@H]1CCCc2cccnc21)C1CCC(F)(F)CC1",
    "units_text": "nm/s",
    "Papp at 4 h": 15
  },
  {
    "substance_smiles": "NCCCCN(C[C@H]1Cc2ncccc2CN1)[C@H]1CCCc2cccnc21",
    "units_text": "nm/s",
    "Papp at 4 h": 17
  },
  {
    "substance_smiles": "NCCCCN(C[C@@H]1Cc2ncccc2CN1)[C@H]1CCCc2cccnc21",
    "units_text": "nm/s",
    "Papp at 4 h": 2
  },
  {
    "substance_smiles": "NCCCCN(C[C@H]1Cc2cccnc2CN1)[C@H]1CCCc2cccnc21",
    "units_text": "nm/s",
    "Papp at 4 h": 2
  },
  {
    "substance_smiles": "NC(=O)NCCCCN(C[C@H]1Cc2ncccc2CN1)[C@H]1CCCc2cccnc21",
    "units_text": "nm/s",
    "Papp at 4 h": 7
  },
  {
    "substance_smiles": "CN(C)CCCCN(C[C@H]1Cc2ncccc2CN1)[C@H]1CCCc2cccnc21",
    "units_text": "nm/s",
    "Papp at 4 h": 2
  },
  {
    "substance_smiles": "NCCCCN(C[C@H]1Cc2ccccc2CN1)[C@H]1CCCc2cccnc21",
    "units_text": "nm/s",
    "Papp at 4 h": 6
  },
  {
    "substance_smiles": "CN(C[C@@H]1Cc2ncccc2CN1)[C@H]1CCCc2cccnc21",
    "units_text": "nm/s",
    "Papp at 4 h": 230
  },
  {
    "substance_smiles": "CN(CCCCN(C[C@H]1Cc2ncccc2CN1)[C@H]1CCCc2cccnc21)C1CCOCC1",
    "units_text": "nm/s",
    "Papp at 4 h": 15
  },
  {
    "substance_smiles": "c1cnc2c(c1)CN[C@@H](CN(CCCC1CCNCC1)[C@H]1CCCc3cccnc31)C2",
    "units_text": "nm/s",
    "Papp at 4 h": 14
  },
  {
    "substance_smiles": "NC(=O)NC/C=C\\CN(C[C@H]1Cc2ncccc2CN1)[C@H]1CCCc2cccnc21",
    "units_text": "nm/s",
    "Papp at 4 h": 5
  },
  {
    "substance_smiles": "NCCCCN(C[C@H]1Cc2nccnc2CN1)[C@H]1CCCc2cccnc21",
    "units_text": "nm/s",
    "Papp at 4 h": 2
  },
  {
    "substance_smiles": "c1cnc2c(c1)CN[C@@H](CN(CCCCN(C1COC1)C1COC1)[C@H]1CCCc3cccnc31)C2",
    "units_text": "nm/s",
    "Papp at 4 h": 62
  },
  {
    "substance_smiles": "CN(C[C@H]1Cc2ncccc2CN1)[C@H]1CCCc2cccnc21",
    "units_text": "nm/s",
    "Papp at 4 h": 460
  },
  {
    "substance_smiles": "NC/C=C/CN(C[C@H]1Cc2ncccc2CN1)[C@H]1CCCc2cccnc21",
    "units_text": "nm/s",
    "Papp at 4 h": 2
  },
  {
    "substance_smiles": "c1cnc2c(c1)CN[C@@H](CN(CCCCNC1COC1)[C@H]1CCCc3cccnc31)C2",
    "units_text": "nm/s",
    "Papp at 4 h": 7
  },
  {
    "substance_smiles": "CCN(CC)CCCCN(C[C@H]1Cc2ncccc2CN1)[C@H]1CCCc2cccnc21",
    "units_text": "nm/s",
    "Papp at 4 h": 3
  },
  {
    "substance_smiles": "c1cnc2c(c1)CN[C@@H](CN(CCCCN1CCOCC1)[C@H]1CCCc3cccnc31)C2",
    "units_text": "nm/s",
    "Papp at 4 h": 12
  },
  {
    "substance_smiles": "NCc1ccc(CN(C[C@H]2Cc3ncccc3CN2)[C@H]2CCCc3cccnc32)cc1",
    "units_text": "nm/s",
    "Papp at 4 h": 20
  },
  {
    "substance_smiles": "c1cnc2c(c1)CN[C@@H](CN(CCCCNC1CCOCC1)[C@H]1CCCc3cccnc31)C2",
    "units_text": "nm/s",
    "Papp at 4 h": 2
  },
  {
    "substance_smiles": "NC/C=C\\CN(C[C@H]1Cc2ncccc2CN1)[C@H]1CCCc2cccnc21",
    "units_text": "nm/s",
    "Papp at 4 h": 28
  },
  {
    "substance_smiles": "NCCCCN(C[C@@H]1Cc2nccnc2CN1)[C@H]1CCCc2cccnc21",
    "units_text": "nm/s",
    "Papp at 4 h": 2
  }
]
